Give PBM binding z-score for every item shown.
System: PPARg:RXRa IVT, anti-PPARg (NR concentration 270 nM, RXRa partner concentration 90 nM)
Assay: PBM binding z-score (relative to random genomic background probes); higher = stronger binding; sequences stand for … in GC…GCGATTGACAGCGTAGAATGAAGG
One number for each entry.

Solved entries:
- Sequence input: "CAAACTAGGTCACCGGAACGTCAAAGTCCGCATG"
  PBM binding z-score: 8.71
- Sequence input: "TATACAGGGTCAAAGGACAGAGTACGAATGTCGA"
  PBM binding z-score: 4.9
- Sequence input: "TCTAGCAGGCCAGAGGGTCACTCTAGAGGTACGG"
  PBM binding z-score: 0.95
- Sequence input: "GCAAATAGGTAATACAAGGTGAAAGTCCGATTGT"
  PBM binding z-score: 2.55

Batch: PBM binding z-score for all items listed.
1. ATCTCTAGGTAACTAAGTTCAGTGAATGCCGAAC
2. ATATGTAGGTTATGGGGTCATTCAGTTTGCGCAT
3. ACTAGCAGGCCAAGTTTGGGTCATTCAAACAAAG
4. TAGCCTAGGTCATGCGGGCCAGAATAGTGTCGGC
5. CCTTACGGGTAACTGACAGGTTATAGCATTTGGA
6. TGAATGAGGTTATAAGATCAAGGAACGTTGCAAA

1: 2.89; 2: 7.35; 3: 1.1; 4: 2.9; 5: 0.095; 6: 1.84

Batch: PBM binding z-score for all items listed.
1. TCTCGGAGGACACGTAGGTCAGAGCTTTCCAGAG
2. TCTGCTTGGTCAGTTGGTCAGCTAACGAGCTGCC
3. AGAATGATGTTATTAAGATCAGGGAATTGCGGTC
4. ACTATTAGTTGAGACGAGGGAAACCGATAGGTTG

0.761
0.646
0.135
-0.339

Batch: PBM binding z-score for all items listed.
1. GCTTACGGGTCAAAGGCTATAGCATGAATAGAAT
2. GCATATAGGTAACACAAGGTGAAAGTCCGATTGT
3. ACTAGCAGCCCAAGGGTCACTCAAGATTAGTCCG
4. TTACCAAGGTGAGGGTCGTTGATCCCTCTGTAGA
5. TCTACTAGGTCAACGATGGTCAGCTAATCTGCTA
6. CCTAGTTGGTCAAGGCCACACACGCTATAGGTAC
7. ATATGTAGGATAAGGGTCATTCAGGTTGGTTCGC
8. CGTCAAAGTTCACGGTAACGTAACAGAAAGCAGC

1. 4.33
2. 4.7
3. 1.13
4. 2.21
5. 7.96
6. 1.16
7. 5.32
8. 2.31

Batch: PBM binding z-score for all items listed.
1. CAAACTAGGTCAAGTGGTCAAAGTCCGCTTCCCG
2. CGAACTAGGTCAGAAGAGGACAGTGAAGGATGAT
3. AATACAGGGTCATCGTAGGCCAGCGTACGCACAG
4. CCTACTGAGCCAAGGTCATTGATCAGTCAAAGCA
5. TGTTGTAGATCAATAGAGGTTAAGAAAGTGCGCT
6. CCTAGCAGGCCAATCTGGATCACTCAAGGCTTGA
7. ATACCAAGGTGATCGTGAGATCGTTGATACTAAC

1. 8.54
2. 7.32
3. 4.3
4. 0.834
5. 0.893
6. 0.817
7. 1.18

Batch: PBM binding z-score for all items listed.
1. CGAATTAGGTCATCCAGGACAGTGAATACATTGA
2. CCTTACGGGTCACTGACAGGTTATAGAATTTGGA

8.35
3.6

Batch: PBM binding z-score for all items listed.
1. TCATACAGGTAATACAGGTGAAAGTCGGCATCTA
2. TCTCGGAGGACACGAAGGTCAGATCTTTCCAGAG

[2.32, 0.717]

Batch: PBM binding z-score for all items listed.
1. CCGAGTAGGTTACGGGGCATTCAGGCAACGGTGA
2. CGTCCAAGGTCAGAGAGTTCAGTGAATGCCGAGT
3. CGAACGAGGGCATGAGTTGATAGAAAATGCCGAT

4.11
2.07
1.89

Batch: PBM binding z-score for all items listed.
1. ATACCAAGGTGATCGCGAGGTCGTTGATACTAAC
2. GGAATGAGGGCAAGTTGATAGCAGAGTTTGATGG
3. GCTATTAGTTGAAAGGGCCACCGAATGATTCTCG
4. CCAGACAGGTGTGAAGGTAACTCAGCCTCGATTA
5. TCTAGTTGGTCAAAGGTCACACAGTCGAAATGCG

1.35
3.82
-0.116
-0.409
5.99

====

Give PBM binding z-score for every item shown.
System: PPARg:RXRa (NR concentration 180 nM, RXRa partner concentration 90 nM)
Experiment: PBM binding z-score (relative to random genomic background probes); higher = stronger binding; sequences stand for … in GC…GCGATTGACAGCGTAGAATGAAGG
Numbers only.

Solved entries:
- Sequence input: "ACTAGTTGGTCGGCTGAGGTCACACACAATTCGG"
  PBM binding z-score: 1.43
- Sequence input: "TCTTGTAGATCAACAGGAGGCTAAGAAAGATCGA"
  PBM binding z-score: -0.179
- Sequence input: "GTGCCAAGGTGAATAGGTCGTTGATGAGTAGGCG"
  PBM binding z-score: 1.15
- Sequence input: "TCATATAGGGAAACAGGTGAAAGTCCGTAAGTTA"
  PBM binding z-score: 1.69

Now consider a different sequence.
Given the sequence "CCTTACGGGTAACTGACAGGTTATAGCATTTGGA" , what is its reported PBM binding z-score?
0.319

====

Test system: RXRa DBDmut IVT, anti-RXR (DBD mutation: RXRa K156A/R161A, NR concentration 90 nM)
Assay: PBM binding z-score (relative to random genomic background probes); higher = stronger binding; sequences stand for … in GC…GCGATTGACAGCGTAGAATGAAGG
Give PBM binding z-score for every item shown.

- Sequence input: "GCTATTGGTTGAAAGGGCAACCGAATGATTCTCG"
  Reading: 0.0979
- Sequence input: "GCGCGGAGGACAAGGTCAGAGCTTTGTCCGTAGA"
  Reading: 0.639
- Sequence input: "ATATGTAAGTTAGCTGGGGTCATTCAGACTAGGC"
  Reading: 1.95
- Sequence input: "CCTGACGGGTCAAGGTTATAGCACGGGTGGTACG"
  Reading: 0.202
- Sequence input: "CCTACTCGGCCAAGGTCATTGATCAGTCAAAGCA"
  Reading: 2.24
- Sequence input: "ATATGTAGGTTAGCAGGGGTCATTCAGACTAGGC"
  Reading: 1.99

Given the sequence "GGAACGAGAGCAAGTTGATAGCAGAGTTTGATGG" , what is its reported PBM binding z-score?
0.292

====

System: PPARg:RXRa DBDmut IVT, anti-RXR (DBD mutation: RXRa K156A/R161A, NR concentration 270 nM, RXRa partner concentration 90 nM)
Test: PBM binding z-score (relative to random genomic background probes); higher = stronger binding; sequences stand for … in GC…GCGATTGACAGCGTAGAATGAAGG
Give PBM binding z-score for every item shown.

Batch: PBM binding z-score for all items listed.
1. GCTACTGGGGCATCAGCAGGTTACCATAACTTAA
2. TCGATTAGGTTAGTCGGGGCATTCAGCCAACATA
3. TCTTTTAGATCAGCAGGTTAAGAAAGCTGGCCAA
4. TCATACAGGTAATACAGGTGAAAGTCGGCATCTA
5. GCGACTGGGGCAAAGCAGGTCACCATAAGGTTGG
6. CTACCAAGGTTAACAAGGTCGTTGATTACTATTC
7. CCTACTGGGCCATCAGGGCATTGATATCAACGTT
8. GCTGCTAGGTCAACTGTTGGTCAGCTAAAGCTCG

1: 5.96; 2: 2.2; 3: 1.92; 4: 3.1; 5: 3.8; 6: 1.98; 7: 3.95; 8: 5.26

Batch: PBM binding z-score for all items listed.
1. CAGCCTAGGTCAGGTCCAGTATAGGAGGAACGTT
2. ATCTCTAGGTAACCACGTTCAGTGAATGCCGAAC

1: 1.02; 2: 2.95

Batch: PBM binding z-score for all items listed.
1. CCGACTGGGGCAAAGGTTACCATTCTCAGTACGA
2. CTCGAAAGGTCGTACTCAGGTGAGTATACCAAAC
3. GCATATAGGTAATACAATGTGAAAGTCCGATTGT

1. 4.87
2. 1.03
3. 4.03

====

Tested on: LXRa homodimer (NR concentration 270 nM)
Assay: PBM binding z-score (relative to random genomic background probes); higher = stronger binding; sequences stand for … in GC…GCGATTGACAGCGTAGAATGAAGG
Tag: yes (1) if measured PBM binding z-score is not below 0.2, no (0) if it is.

- Sequence input: "CCTACTGGGCCAAAAAGGTCATTGACGCCGATAA"
  Test target: "LXRa homodimer (NR concentration 270 nM)"
  Category label: "yes (1)"

Confirm if PBM binding z-score reported for the sequence "CGAACTAGATCAGAACAGGACAGTGAAGGATGAT" is 0.2 or above.
no (0)

Confirm if PBM binding z-score reported for the sequence "TAGCCTAGGACATTCAGGGGCCAGTATAGAAAGC" is 0.2 or above.
no (0)

Confirm if PBM binding z-score reported for the sequence "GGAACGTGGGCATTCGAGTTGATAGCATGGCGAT" is 0.2 or above.
no (0)

Confirm if PBM binding z-score reported for the sequence "GCTAGTTGGTCAGTAAAAGGTCACACAACGGTCG" is 0.2 or above.
yes (1)

Confirm if PBM binding z-score reported for the sequence "ATCGAGAGGTCGTGAGGTGAGTATACAGAAAGGC" is 0.2 or above.
no (0)

Confirm if PBM binding z-score reported for the sequence "GCGGCTAGGTCAACTGATGGTCAGCTAAAGCTCG" is 0.2 or above.
no (0)

Confirm if PBM binding z-score reported for the sequence "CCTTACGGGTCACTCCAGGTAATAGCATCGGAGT" is 0.2 or above.
no (0)

Confirm if PBM binding z-score reported for the sequence "GCTATTAGCTGAAAGGGCAACCGAATGATTCTCG" is 0.2 or above.
no (0)

Confirm if PBM binding z-score reported for the sequence "TCTCGTAGATCAATAGAGGTTAAGAAAGTGCGCT" is 0.2 or above.
yes (1)

Confirm if PBM binding z-score reported for the sequence "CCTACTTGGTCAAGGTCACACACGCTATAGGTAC" is 0.2 or above.
yes (1)

Confirm if PBM binding z-score reported for the sequence "ATCGAAAGGACGACGAGGTGAGTATACACCGTTT" is 0.2 or above.
no (0)

Confirm if PBM binding z-score reported for the sequence "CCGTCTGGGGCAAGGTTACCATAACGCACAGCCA" is 0.2 or above.
no (0)

Confirm if PBM binding z-score reported for the sequence "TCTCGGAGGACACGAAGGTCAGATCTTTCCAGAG" is 0.2 or above.
yes (1)

Confirm if PBM binding z-score reported for the sequence "TTACCAAGGTGCAAGGTCGTTGATGCACGCCTTG" is 0.2 or above.
no (0)

Confirm if PBM binding z-score reported for the sequence "GATACAGGGCCAAGGCCAGAGTACGCGTATTGAT" is 0.2 or above.
no (0)
